Tested on: HCI16 (cells of a triple-negative basal-like breast cancer xenograft)
Test: cell viability (% of vehicle); higher = less cytotoxic
Conditions: 10 µM; 72 h
Quantity: cell viability
// no unit string in output, number only

compound="CC(C)n1c(C=CC(O)CC(O)CC(=O)[O-])c(-c2ccc(F)cc2)c2ccccc21.[Na+] (stereo not given) [Fluvastatin Sodium]" observed=135
compound="COc1cc(NS(=O)(=O)c2ccc(N)cc2)nc(OC)n1 [Sulfadimethoxine]" observed=118
compound="O=c1[nH]c(=O)n(C2CC(O)C(CO)O2)cc1F (stereo not given) [Floxuridine]" observed=161

Dear colleague, please send me the reported cell viability for NNC(=O)c1ccncc1.Nc1ccc(C(=O)O)c(O)c1 [Pasiniazid] when you can.
83.7

Dear colleague, please send me the reported cell viability for O=c1ccc2ccccc2o1 [Coumarin] when you can.
128

Dear colleague, please send me the reported cell viability for CC(=O)O.C[C@H](N)C(=O)O.NCCCC[C@H](N)C(=O)O.N[C@@H](CCC(=O)O)C(=O)O.N[C@@H](Cc1ccc(O)cc1)C(=O)O [glatiramer acetate] when you can.
125

Dear colleague, please send me the reported cell viability for Cc1nc(=O)c2cc(CN(C)c3ccc(C(=O)NC(CCC(=O)O)C(=O)O)s3)ccc2[nH]1 (stereo not given) [Raltitrexed] when you can.
99

Dear colleague, please send me the reported cell viability for Cl.NCCCC(N)(C(=O)O)C(F)F.O (racemic) [DL-α-Difluoromethylornithine (hydrochloride hydrate)] when you can.
99.2

Dear colleague, please send me the reported cell viability for Cc1ncc([N+](=O)[O-])n1CC(C)O (stereo not given) [Secnidazole] when you can.
114

Dear colleague, please send me the reported cell viability for CC(O)C1C(=O)N2C(C(=O)O)=C(SC3CNC(C(=O)N(C)C)C3)C(C)C12 (stereo not given) [Meropenem] when you can.
103

Dear colleague, please send me the reported cell viability for COC(=O)NC(C(=O)N1CCCC1c1ncc(-c2ccc(-c3ccc(-c4cnc(C5CCCN5C(=O)C(NC(=O)OC)C(C)C)[nH]4)cc3)cc2)[nH]1)C(C)C (stereo not given) when you can.
87.2

Dear colleague, please send me the reported cell viability for CCCCCCCCCCCCCCCCO [1-Hexadecanol] when you can.
109

Dear colleague, please send me the reported cell viability for Cc1cncc(CN2CCC(=C3c4ccc(Cl)cc4CCc4cccnc43)CC2)c1.O=C(O)C=CC(=O)O [Rupatadine Fumarate] when you can.
109

Dear colleague, please send me the reported cell viability for C=C[C@]1(C)C[C@@H](OC(=O)CSC2C[C@H]3CC[C@@H](C2)N3C)[C@]2(C)[C@H](C)CC[C@]3(CCC(=O)[C@H]32)[C@@H](C)[C@@H]1O (stereo not given in full) [Retapamulin] when you can.
109

Dear colleague, please send me the reported cell viability for COCCOC(=O)C1=C(C)NC(C)=C(C(=O)OCC=Cc2ccccc2)C1c1cccc([N+](=O)[O-])c1 (stereo not given) [Cilnidipine] when you can.
54.9

---

Test system: HCI09 (cells of a triple-negative luminal androgen receptor type breast cancer xenograft)
Experiment: cell viability (% of vehicle); higher = less cytotoxic
Conditions: 10 µM; 72 h
Quantity: cell viability
// no unit string in output, number only

Some solved entries appear below for comparison.
molecule="CCOC(=O)CCC(=O)OC1C(OC2C(C)C(OC3CC(C)(OC)C(O)C(C)O3)C(C)C(=O)OC(CC)C(C)(O)C(O)C(C)C(=O)C(C)CC2(C)O)OC(C)CC1N(C)C (stereo not drawn) [Erythromycin Ethylsuccinate]" test_system=HCI09 quantity="cell viability" observed=97.4
molecule=CN1CC(=O)N2[C@H](c3ccc4c(c3)OCO4)c3[nH]c4ccccc4c3C[C@@H]2C1=O test_system=HCI09 quantity="cell viability" observed=90
molecule="Nc1cccc2c1C(=O)N(C1CCC(=O)NC1=O)C2=O (stereo not drawn) [Pomalidomide (CC-4047)]" test_system=HCI09 quantity="cell viability" observed=87.9

Dear colleague, please send me the reported cell viability for Cc1nc(=O)c2cc(CN(C)c3ccc(C(=O)NC(CCC(=O)O)C(=O)O)s3)ccc2[nH]1 (stereo not drawn) when you can.
104

Dear colleague, please send me the reported cell viability for NC(=O)OCC(COC(N)=O)c1ccccc1 [Felbamate] when you can.
90.7

Dear colleague, please send me the reported cell viability for CC(C(=O)O)c1ccc2c(c1)[nH]c1ccc(Cl)cc12 (stereo not drawn) when you can.
112

Dear colleague, please send me the reported cell viability for CN(C)CCC=C1c2ccccc2CCc2ccccc21.Cl [Amitriptyline HCl] when you can.
87.6

Dear colleague, please send me the reported cell viability for Cl.Cl.O=C(O)COCCN1CCN(C(c2ccccc2)c2ccc(Cl)cc2)CC1 (stereo not drawn) [Cetirizine DiHCl] when you can.
98.4

---

// reported cell viability of combination per item
Tested on: HCI01 (cells of a triple-negative basal-like breast cancer xenograft)
Assay: cell viability of combination (% of vehicle); higher = less cytotoxic
Details: 1 µM; 72 h; partner dose: 10 nM
Counter-ions that a name gives are not always drawn.
// no unit string in output, number only

Some solved entries appear below for comparison.
compound="Cl.Fc1ccc(C2CCNCC2COc2ccc3c(c2)OCO3)cc1 (configuration not stated) [Paroxetine HCl] + CN(C)C/C=C/C(=O)Nc1cc2c(Nc3ccc(F)c(Cl)c3)ncnc2cc1O[C@H]1CCOC1 [Afatinib]" observed=52.3
compound="COc1ccc(C[C@H](N)C(=O)N[C@@H]2[C@H](O)[C@H](n3cnc4c(N(C)C)ncnc43)O[C@@H]2CO)cc1.Cl.Cl [Puromycin dihydrochloride] + CN(C)C/C=C/C(=O)Nc1cc2c(Nc3ccc(F)c(Cl)c3)ncnc2cc1O[C@H]1CCOC1 [Afatinib]" observed=69.5
compound="CNCCC(Oc1cccc2ccccc12)c1cccs1.Cl (configuration not stated) [Duloxetine HCl] + CN(C)C/C=C/C(=O)Nc1cc2c(Nc3ccc(F)c(Cl)c3)ncnc2cc1O[C@H]1CCOC1 [Afatinib]" observed=45.3

Dear colleague, please send me the reported cell viability of combination for CCOC(=O)C1=C(COCCN)NC(C)=C(C(=O)OC)C1c1ccccc1Cl.O=S(=O)(O)c1ccccc1 (configuration not stated) [Amlodipine Besylate] + CN(C)C/C=C/C(=O)Nc1cc2c(Nc3ccc(F)c(Cl)c3)ncnc2cc1O[C@H]1CCOC1 [Afatinib] when you can.
59.5

Dear colleague, please send me the reported cell viability of combination for CN(C)CCOc1ccc(C(=C(CCCl)c2ccccc2)c2ccccc2)cc1.O=C(O)CC(O)(CC(=O)O)C(=O)O [Toremifene Citrate] + CN(C)C/C=C/C(=O)Nc1cc2c(Nc3ccc(F)c(Cl)c3)ncnc2cc1O[C@H]1CCOC1 [Afatinib] when you can.
70.8

Dear colleague, please send me the reported cell viability of combination for Clc1ccc(CSC(Cn2ccnc2)c2ccc(Cl)cc2Cl)cc1.O=[N+]([O-])O (configuration not stated) [Sulconazole Nitrate] + CN(C)C/C=C/C(=O)Nc1cc2c(Nc3ccc(F)c(Cl)c3)ncnc2cc1O[C@H]1CCOC1 [Afatinib] when you can.
62.8

Dear colleague, please send me the reported cell viability of combination for CCC(NC(=O)C(C)NC)C(=O)N1CC(O)CC1Cc1c(-c2[nH]c3cc(F)ccc3c2CC2CC(O)CN2C(=O)C(CC)NC(=O)C(C)NC)[nH]c2cc(F)ccc12 (configuration not stated) + CN(C)C/C=C/C(=O)Nc1cc2c(Nc3ccc(F)c(Cl)c3)ncnc2cc1O[C@H]1CCOC1 [Afatinib] when you can.
42.3

Dear colleague, please send me the reported cell viability of combination for Cc1nc(Nc2ncc(C(=O)Nc3c(C)cccc3Cl)s2)cc(N2CCN(CCO)CC2)n1 + CN(C)C/C=C/C(=O)Nc1cc2c(Nc3ccc(F)c(Cl)c3)ncnc2cc1O[C@H]1CCOC1 [Afatinib] when you can.
41.5

Dear colleague, please send me the reported cell viability of combination for COc1nc2ccc(Br)cc2cc1[C@@H](c1ccccc1)[C@@](O)(CCN(C)C)c1cccc2ccccc12 [Bedaquiline fumarate] + CN(C)C/C=C/C(=O)Nc1cc2c(Nc3ccc(F)c(Cl)c3)ncnc2cc1O[C@H]1CCOC1 [Afatinib] when you can.
52.9

Dear colleague, please send me the reported cell viability of combination for COC1=C(OC)C(=O)C(CCCCCCCCCCO)=C(C)C1=O [Idebenone] + CN(C)C/C=C/C(=O)Nc1cc2c(Nc3ccc(F)c(Cl)c3)ncnc2cc1O[C@H]1CCOC1 [Afatinib] when you can.
58.8

Dear colleague, please send me the reported cell viability of combination for CO[C@H]1C[C@@H]2CC[C@@H](C)[C@@](O)(O2)C(=O)C(=O)N2CCCC[C@H]2C(=O)O[C@H]([C@H](C)C[C@@H]2CC[C@@H](OC(=O)C(C)(CO)CO)[C@H](OC)C2)CC(=O)[C@H](C)/C=C(\C)[C@@H](O)[C@@H](OC)C(=O)[C@H](C)C[C@H](C)/C=C/C=C/C=C/1C [Temsirolimus] + CN(C)C/C=C/C(=O)Nc1cc2c(Nc3ccc(F)c(Cl)c3)ncnc2cc1O[C@H]1CCOC1 [Afatinib] when you can.
45.9

Dear colleague, please send me the reported cell viability of combination for CS(=O)(=O)CCNCc1ccc(-c2ccc3ncnc(Nc4ccc(OCc5cccc(F)c5)c(Cl)c4)c3c2)o1.Cc1ccc(S(=O)(=O)O)cc1.Cc1ccc(S(=O)(=O)O)cc1 [Lapatinib Ditosylate] + CN(C)C/C=C/C(=O)Nc1cc2c(Nc3ccc(F)c(Cl)c3)ncnc2cc1O[C@H]1CCOC1 [Afatinib] when you can.
41.6

Cited source for all entries: the supplement of paper PMC6992640
